Just for reference, the supplement of paper PMC11417369 is where these values come from.

- System: PfHDP1 homeodomain (GST-tagged)
- PROCEDURE SUMMARY: gcPBM binding intensity (ln(normalized median fluorescence intensity)); higher = stronger DNA binding
In all, about 25,000 sequences were measured (“ln(normalized median fluorescence intensity)”: median about 6.7, highest 2% from about 10 on). The sample holds the highest values, similar sequences and a random draw of the others, so the mix is not that of the screen.
Quick rule: gcPBM binding intensity (ln) of at least 7 means Fulfilled, below that means Not fulfilled.

Observe how each entry below is paired with its result.
Enquiry: Evaluate TTCAAAACTTAAAATCGTACAAGACAATTATTATAT [XGTACX_site6626] : gcPBM binding intensity (ln) at minimum 7?
Return: Not fulfilled

Enquiry: Moving on to ACAAATAAGTTTTGTAGTACTGTGTATATATATATA [XGTACX_site6901]
Return: Fulfilled

Enquiry: Moving on to TATAATATTTGGTGCACACAAATTAACAACTGTTTA [CACACA_site3742]
Return: Fulfilled

Next:
Enquiry: Evaluate TGTATAATATTTGGTGCACACAAATTAACAACTGTT [CACACA_site9245] : gcPBM binding intensity (ln) at minimum 7?
Return: Fulfilled

Enquiry: Moving on to `TTTCAAATGGAATGTGTGCACATAAATGTAAATAAA`
Return: Fulfilled

Enquiry: Moving on to TTTTTCATAAAACACACACACAAAAATAATGTGGAA [CACACA_site3687]
Return: Not fulfilled

Enquiry: Moving on to GGCGTATGTGTATATACACACCCACGTATATATATA [CACACA_site9046]
Return: Fulfilled

Enquiry: Moving on to TTTATTTTTAACAGTGCACACATAACTTAATTATAT [CACACA_site8681]
Return: Fulfilled

Enquiry: Moving on to TGTTTGTAATTATGTATGCACTTTTTTGTATGTGTG [GTGCAC_site9668]
Return: Fulfilled

Enquiry: Moving on to TATATATATATATGTACACACATCAATCATATTAAC [CACACA_site1946]
Return: Fulfilled

Enquiry: Moving on to ATGTCTAATTTTGATGCACACTTTTGTGCAATTAAA [CACACA_site5589]
Return: Fulfilled

Enquiry: Moving on to GAATAAATTAAAAATGCACACTTTGATGGGTACATT [CACACA_site5220]
Return: Fulfilled

Enquiry: Moving on to `TTAATATATTATCTGGTGCATAAACACGTTATACCT`
Return: Fulfilled

Enquiry: Moving on to `TTTGTTCTTTTTGAAGTGCACTGAAATATAACAAAA`
Return: Fulfilled

Enquiry: Moving on to TTCTTTGTAGTATATTAACACACAACTGTTTATAAT [CACACA_site9305]
Return: Not fulfilled

Enquiry: Moving on to TGTATTAAATTTTGAACACACAAAATAAAACATATA [CACACA_site1672]
Return: Not fulfilled

Enquiry: Moving on to TTTCAAAATGTGTAAAATAAAAATAATATCATTACA [TGCATGCA_negctrl_site521]
Return: Not fulfilled

* * *

- Test system: PfHDP1 homeodomain (GST-tagged)
- PROCEDURE SUMMARY: gcPBM binding intensity (ln(normalized median fluorescence intensity)); higher = stronger DNA binding
The full ranking holds about 25,000 sequences; the median of “ln(normalized median fluorescence intensity)” is about 6.7, and the highest 2% start at about 10. What follows is part of a selection rich in the highest values, with near analogues and random picks from the rest.
Quick rule: gcPBM binding intensity (ln) of at least 7 means 1, below that means -1.

Observe how each entry below is paired with its result.
Enquiry: Evaluate ATATGGATTATACATACATGCATACATACATACATA [TGCATGCA_site475] : gcPBM binding intensity (ln) at minimum 7?
Return: -1

Enquiry: Moving on to CAAAAAAATGTGAAGGCATGCAAATATGTAAAATAA [TGCATGCA_site921]
Return: 1

Enquiry: Moving on to TTATATTTTCAGAATAGTACACATATATACATATAT [XGTACX_site2519]
Return: -1

Next:
Enquiry: Evaluate `ATATATATATATATAGTGCATAAAATAAGTTTCTAA` : gcPBM binding intensity (ln) at minimum 7?
Return: 1

Enquiry: Moving on to TACAAAATAAAAATAATTCTTTCAAAAAATAATAAA [XGTACX_negctrl_site368]
Return: -1

Enquiry: Moving on to AATAAATGGAAAAGGTGTACACAAAAAAAAGGGAAA [XGTACX_site4956]
Return: 1

Enquiry: Moving on to ATAATTATAAAATAAACACACATATATATTTATATG [CACACA_site440]
Return: -1

Enquiry: Moving on to TAATATAGAAAATGCATACACACTTTATATATATAT [CACACA_site911]
Return: 1

Enquiry: Moving on to AAATAAATCTTATGCACACAAATAATTAATGAAACA [CACACA_site5011]
Return: 1

Enquiry: Moving on to TATAATCTAACATAATGTACATGTATATGCACTTTA [XGTACX_site369]
Return: 1

Enquiry: Moving on to TGATTCACTATAGTAGTGCATATTATATATATATAT [GTGCAC_site9975]
Return: 1

Enquiry: Moving on to GTATGTATATATATATGTACATACTGTTTATCGTTA [XGTACX_site6168]
Return: -1

Enquiry: Moving on to `ATTATATTTATGTTGGTGCATTATACATGAAATTTA`
Return: 1

Enquiry: Moving on to TATAATAATAATTATACATGCATGAATATTTATATG [TGCATGCA_site811]
Return: -1

Enquiry: Moving on to `TATTTTTATTATATGGTGCATATATACATACATATA`
Return: 1

Enquiry: Moving on to ATTTCTCTATCGTAATGTACATAAAAAAGAAAAACA [XGTACX_site6374]
Return: -1

Enquiry: Moving on to TATAAAATAAATTGTGCACACATATTTATAAATATG [CACACA_site2330]
Return: 1

Enquiry: Moving on to ATCATATTTATGTTGGTGCATTATGCATGGATTTTA [GTGCAC_site9795]
Return: 1

Enquiry: Moving on to GTTTTTAGTATTTTTTGTACTTAATACATAGCCTTA [XGTACX_site7318]
Return: -1

* * *

- Test system: PfHDP1 homeodomain (GST-tagged)
- PROCEDURE SUMMARY: gcPBM binding intensity (ln(normalized median fluorescence intensity)); higher = stronger DNA binding
In all, about 25,000 sequences were measured (“ln(normalized median fluorescence intensity)”: median about 6.7, highest 2% from about 10 on). Many of the other results were omitted from the sample, so the highest values are more common in it than they were.
MEASURED QUANTITY: gcPBM binding intensity (ln)
Answer with the value's number alone.

Enquiry: # gcPBM binding intensity (ln) lookup, item AAAAAATATATTTGCACACTCAAAAAAAAAAAAAAA [CACACA_site859]
Return: 10.3

Next:
Enquiry: # gcPBM binding intensity (ln) lookup, item TGTGCATAAATTTATGCACACATAAAAAAAAAAAAA [CACACA_site8954]
Return: 11

Enquiry: Moving on to TAAAATAATTTATGCATACACACATATATATATATA [CACACA_site4021]
Return: 9.28

Enquiry: Moving on to `GTTTATTTATTTTATGTGCACATATAACAAAAAAAA`
Return: 10.7

* * *

- Test system: PfHDP1 homeodomain (GST-tagged)
- PROCEDURE SUMMARY: gcPBM binding intensity (ln(normalized median fluorescence intensity)); higher = stronger DNA binding
Whole data set: some 25,000 sequences, median “ln(normalized median fluorescence intensity)” near 6.7, cut for the highest 2% near 10. Many of the other results were omitted from the sample, so the highest values are more common in it than they were.
MEASURED QUANTITY: gcPBM binding intensity (ln)
Answer with the value's number alone.

See these solved cases before continuing.
Enquiry: # gcPBM binding intensity (ln) lookup, item GAGTATATTTATATTGCACACAATTTTTTTATTTTT [CACACA_site2644]
Return: 10.5

Enquiry: Moving on to CATATATATATATATACACACATATATATTTTCTTT [CACACA_site1457]
Return: 7.04

Enquiry: Moving on to CGCGAACATACATACACACACATATTTATATAGGTA [CACACA_site6241]
Return: 6.69

Enquiry: Moving on to AAGTATGTATCACAAAGTACTTAAGCATATATTTAA [XGTACX_site4121]
Return: 6.57

Enquiry: Moving on to GATAGACACGTGCACACATGCAATACTTTATTCAGT [TGCATGCA_site778]
Return: 10

Enquiry: Moving on to CAATGTTAATATAATACACACAATATGTATTTGTCT [CACACA_site1162]
Return: 6.8

Enquiry: Moving on to AAAAAAAAATACAAAATAGCAATAAATACACAAACG [GTGCAC_negctrl_site707]
Return: 7.12

Enquiry: Moving on to TTTGTGTTGTATTTTTGTACATAAAATAAACTTAAA [XGTACX_site4637]
Return: 6.65

Next:
Enquiry: # gcPBM binding intensity (ln) lookup, item AATGATACTTAGGGGCATGTCTCTGGGGGCATAACC [CACACA_negctrl_site591]
Return: 6.63

Enquiry: Moving on to ACACAAAAAATAAAAATATATATATATTATATATAT [CACACA_negctrl_site1489]
Return: 7.32

Enquiry: Moving on to ATATTTATAAATTGCACACAAATAATAACATTATAT [CACACA_site5322]
Return: 10.6

Enquiry: Moving on to ATAAAATATAGGTATGCACACACATATACTTCTGTG [CACACA_site8398]
Return: 8.84

Enquiry: Moving on to AATATTGCACCATTTTGTACATAATATATTCAAATA [XGTACX_site475]
Return: 10.3

Enquiry: Moving on to ATTTGATAGACACATGCACACATGCAATACTTTATT [CACACA_site5633]
Return: 9.05

Enquiry: Moving on to TTTTTCATATTATACTTTTATATACATATATAAAAA [XGTACX_negctrl_site281]
Return: 6.49

Enquiry: Moving on to AAAATATAGGTATGCACACACATATACTTCTGTGCA [CACACA_site1409]
Return: 10

Enquiry: Moving on to AAATATATCATACAAAGTACTTGGAATTAATATATA [XGTACX_site8907]
Return: 6.3

Enquiry: Moving on to ATGGACTTTTATAGTTGTACATACTATGAGAACTTT [XGTACX_site2800]
Return: 7.08

Enquiry: Moving on to TATCTGTATTTATTCACACATATAAAATATAATTAA [CACACA_site5560]
Return: 6.36
